target: Amyloid-beta precursor protein (Homo sapiens) (UniProt P05067); assay: Inhibition of Amyloid beta 42 (unknown origin) aggregation extracted from Escherichia coli BL21 assessed as decrease in amyloid beta fibril formation incubated for 48 hrs by atomic force microscopy
Sequence (P05067 whole entry): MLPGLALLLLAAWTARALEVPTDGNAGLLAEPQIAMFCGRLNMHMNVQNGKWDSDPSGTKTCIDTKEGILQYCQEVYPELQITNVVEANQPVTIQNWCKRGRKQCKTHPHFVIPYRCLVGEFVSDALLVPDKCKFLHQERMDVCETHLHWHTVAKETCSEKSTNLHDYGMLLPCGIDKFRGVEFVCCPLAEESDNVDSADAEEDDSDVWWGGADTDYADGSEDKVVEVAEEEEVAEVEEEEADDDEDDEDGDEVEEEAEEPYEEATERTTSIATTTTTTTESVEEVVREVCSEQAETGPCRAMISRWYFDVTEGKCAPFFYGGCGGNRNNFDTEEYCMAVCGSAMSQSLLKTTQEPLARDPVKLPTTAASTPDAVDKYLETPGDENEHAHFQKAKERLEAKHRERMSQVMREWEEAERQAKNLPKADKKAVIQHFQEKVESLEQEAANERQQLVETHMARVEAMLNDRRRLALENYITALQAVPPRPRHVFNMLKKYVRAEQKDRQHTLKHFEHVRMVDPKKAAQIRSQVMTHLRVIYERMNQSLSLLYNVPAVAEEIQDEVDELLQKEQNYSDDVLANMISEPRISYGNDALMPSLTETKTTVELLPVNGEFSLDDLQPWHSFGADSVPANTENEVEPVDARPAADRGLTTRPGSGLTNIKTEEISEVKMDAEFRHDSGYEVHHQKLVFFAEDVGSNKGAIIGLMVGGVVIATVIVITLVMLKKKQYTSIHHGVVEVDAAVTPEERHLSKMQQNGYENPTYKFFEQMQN
Calls of active or inactive are those of the source. The calls are words filed in the database; no cut-off is given here. Residues, ends and D or L forms follow the SMILES beside them. *: point of attachment. X1 = CN(C)c1ccc2c3c(cccc13)C(=O)N(CCN*)C2=O
Answer with one of the outcomes given here: active, inactive

Q: // return assay outcome for CN(C)c1ccc2c3c(cccc13)C(=O)N(CCNC(=O)[C@H](CCC(N)=O)NC(=O)[C@H](CCCCN)NC(=O)[C@H](Cc1c[nH]cn1)NC(=O)[C@@H](Cc1c[nH]cn1)NC(=O)CN)C2=O
Result: active

Q: Could you please tell me the result logged for NCCCC[C@H](NC(=O)[C@H](Cc1cnc[nH]1)NC(=O)CN)C(=O)O (H-Gly-His-Lys-OH) in this assay?
Result: inactive

Q: What was the test verdict on CN(C)c1ccc2c3c(cccc13)C(=O)N(CCNC(=O)[C@H](CCC(N)=O)NC(=O)[C@H](CCCCN)NC(=O)[C@H](Cc1c[nH]cn1)NC(=O)CN)C2=O (H-GHKQ-X1) ?
Result: active

Q: So what was the verdict on CN(C)c1ccc2c3c(cccc13)C(=O)N(CCNC(=O)[C@@H](N)CCC(N)=O)C2=O in this test?
Result: active

Q: Hi, sorry to bother you, what did the test record for CN(C)c1ccc2c3c(cccc13)C(=O)N(CCNC(=O)[C@H](CCC(N)=O)NC(=O)[C@H](CCCCN)NC(=O)[C@H](Cc1c[nH]cn1)NC(=O)CNC(=O)CN)C2=O (H-GGHKQ-X1) ?
Result: inactive

Q: Check the results log: what was the call for CN(C)c1ccc2c3c(cccc13)C(=O)N(CCNC(=O)[C@H](CCC(N)=O)NC(=O)[C@H](CCCCN)NC(=O)[C@@H](N)Cc1c[nH]cn1)C2=O ?
Result: active

====

experiment: Cytotoxicity against human SH-SY5Y cells assessed as cell viability at 100 uM incubated for 24 hrs by MTT assay relative to control; type: toxicity, cell-based; conditions: read-out: Activity
Residues, ends and D or L forms follow the SMILES beside them. *: point of attachment. X1 = CN(C)c1ccc2c3c(cccc13)C(=O)N(CCN*)C2=O
assayEndpoint: viability at 24 h, 100 µM

Q: Fill in reported viability at 24 h, 100 µM for this entry: CN(C)c1ccc2c3c(cccc13)C(=O)N(CCNC(=O)[C@H](CCC(N)=O)NC(=O)[C@H](CCCCN)NC(=O)[C@H](Cc1c[nH]cn1)NC(=O)CNC(=O)CN)C2=O (H-GGHKQ-X1)
Result: > 90%

Q: Quick one: give measured viability at 24 h, 100 µM for CN(C)c1ccc2c3c(cccc13)C(=O)N(CCNC(=O)[C@H](CCC(N)=O)NC(=O)[C@H](CCCCN)NC(=O)[C@@H](N)Cc1c[nH]cn1)C2=O
Result: > 90%

Q: Note down viability at 24 h, 100 µM recorded for CN(C)c1ccc2c3c(cccc13)C(=O)N(CCNC(=O)[C@H](CCC(N)=O)NC(=O)[C@H](CCCCN)NC(=O)[C@H](Cc1c[nH]cn1)NC(=O)[C@@H](Cc1c[nH]cn1)NC(=O)CN)C2=O
Result: > 90%

====

target: Amyloid-beta precursor protein (Homo sapiens); assay: Inhibition of Amyloid beta 42 (unknown origin) aggregation extracted from Escherichia coli BL21 assessed as decrease in Cu2+ induced amyloid beta fibril formation incubated for 48 hrs in presence of Cu2+ by atomic force microscopy
Activity calls are given as the source filed them. The calls are words filed in the database; no cut-off is given here. Residues, ends and D or L forms follow the SMILES beside them. *: point of attachment. X1 = CN(C)c1ccc2c3c(cccc13)C(=O)N(CCN*)C2=O
Choose one outcome from this list and give only that: active, inactive

Q: Query: recorded result category for CN(C)c1ccc2c3c(cccc13)C(=O)N(CCNC(=O)[C@H](CCC(N)=O)NC(=O)[C@H](CCCCN)NC(=O)[C@@H](N)Cc1c[nH]cn1)C2=O in this test
Result: active

Q: Which outcome did this test record for the compound NCCCC[C@H](NC(=O)[C@H](Cc1cnc[nH]1)NC(=O)CN)C(=O)O (H-Gly-His-Lys-OH) ?
Result: inactive

Q: Which outcome did this test record for the compound CN(C)c1ccc2c3c(cccc13)C(=O)N(CCNC(=O)[C@H](CCC(N)=O)NC(=O)[C@H](CCCCN)NC(=O)[C@H](Cc1c[nH]cn1)NC(=O)CNC(=O)CN)C2=O (H-GGHKQ-X1) ?
Result: inactive

Q: Fill in: this test's call for CN(C)c1ccc2c3c(cccc13)C(=O)N(CCNC(=O)[C@H](CCC(N)=O)NC(=O)[C@H](CCCCN)NC(=O)[C@H](Cc1c[nH]cn1)NC(=O)CN)C2=O (H-GHKQ-X1) is ___
Result: active

Q: I would be grateful if you could indicate the recorded call for CN(C)c1ccc2c3c(cccc13)C(=O)N(CCNC(=O)[C@@H](N)CCC(N)=O)C2=O .
Result: inactive

Q: // param item: CN(C)c1ccc2c3c(cccc13)C(=O)N(CCNC(=O)[C@H](CCC(N)=O)NC(=O)[C@H](CCCCN)NC(=O)[C@H](Cc1c[nH]cn1)NC(=O)[C@@H](Cc1c[nH]cn1)NC(=O)CN)C2=O ; yields the recorded call
Result: active
